B1: Hairpin Ribozyme (parent)
chain: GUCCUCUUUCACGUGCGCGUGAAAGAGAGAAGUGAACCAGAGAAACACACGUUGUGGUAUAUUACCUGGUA

- Variants of: B1
- experimental_details: self-cleavage, relative activity (ratio to wild type); higher = more cleavage; co-transcriptional
observation_type: self-cleavage
Just the number, please, no unit attached.

Some entries whose results are on file:
A44G C46G = 0.0715
C46A A47C = 0.0767
C16U C46G = 0.141
G42C A71G = 0.339

Q: Provide measured self-cleavage value, entry: C3U C50G
Result: 0.174

Q: Give a short answer stating reported self-cleavage for C6U G54A .
Result: 0.59

Q: Provide only the value of recorded self-cleavage for A11G G56A
Result: 0.229

Provenance of the data: the RNAGym collection of RNA variant scans (doi:10.7554/elife.80360)
